These measurements were taken from the RNAGym collection of RNA variant scans (doi:10.1021/acssynbio.7b00057).

B1: Pistol ribozyme (parent)
chain: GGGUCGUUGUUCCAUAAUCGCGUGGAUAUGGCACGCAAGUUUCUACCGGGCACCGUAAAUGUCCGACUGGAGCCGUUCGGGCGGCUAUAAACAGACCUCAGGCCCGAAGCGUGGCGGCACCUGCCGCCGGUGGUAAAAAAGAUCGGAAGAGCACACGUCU

# Variants of: B1
# assay: aptazyme ON/OFF ratio, guanine; higher = stronger switching; co-transcriptional cleavage with and without guanine
For each record, write down the corresponding aptazyme ON/OFF ratio.

Q: Please give the measured aptazyme ON/OFF ratio for this variant: U7A U8C G9A U10A C12U C13G
A: 1.2

Q: Please give the measured aptazyme ON/OFF ratio for this variant: U7C G9U U10G U11C C12U
A: 1.14

Q: Please give the measured aptazyme ON/OFF ratio for this variant: U7C G9C U10A U11A C13G
A: 1.05

Q: Please give the measured aptazyme ON/OFF ratio for this variant: U7A U8G G9A U11G C12A
A: 1.14

Q: Please give the measured aptazyme ON/OFF ratio for this variant: U7G U8C G9U U10A U11G C12A C13U
A: 1.11

Q: Please give the measured aptazyme ON/OFF ratio for this variant: U7G U8A G9C U10A
A: 1.07

Q: Please give the measured aptazyme ON/OFF ratio for this variant: U7G U8C G9C U10G C12A C13A
A: 1.1

Q: Please give the measured aptazyme ON/OFF ratio for this variant: U7C U8C G9U U10C
A: 2.52

Q: Please give the measured aptazyme ON/OFF ratio for this variant: U7C U10C U11G C12U C13U
A: 1.16

Q: Please give the measured aptazyme ON/OFF ratio for this variant: U7C U10G U11C C13G
A: 1.06

Q: Please give the measured aptazyme ON/OFF ratio for this variant: U7C U8G G9C U10A U11G C12A C13G
A: 1.19

Q: Please give the measured aptazyme ON/OFF ratio for this variant: U8G U10C U11C C12A C13U
A: 1.05

Q: Please give the measured aptazyme ON/OFF ratio for this variant: U7C U8C G9U U11A C12U C13U
A: 1.2
